Catalogue of variants with associated Tm
B1: Ribonuclease HI, P0A7Y4 (parent)
chain: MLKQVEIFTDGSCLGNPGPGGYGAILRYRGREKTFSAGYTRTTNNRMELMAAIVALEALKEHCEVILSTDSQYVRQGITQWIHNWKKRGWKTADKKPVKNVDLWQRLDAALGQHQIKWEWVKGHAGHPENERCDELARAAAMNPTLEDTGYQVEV

Variants of: B1
measurement.context: Escherichia coli (strain K12); pH 3; Thermal; CD; glycine-HCl 10 mM; NaCl 0.1 M; reversible: yes; structure 2RN2; whole UniProt chain shown
Please give a number only; it is taken to be in °C.

K95N: 53
H62P: 53.5
Q80L: 51.1

The variant identified as K117R registered its Tm at 49.9
